Cited source: patent US11440923B2

Quick reference for pIC50 among some compounds
Target: MCL1 protein / biotinylated BIM BH3 peptide in RKO cells (Homo sapiens (Human), UniProt Q07820)
Sequence (Q07820 whole entry): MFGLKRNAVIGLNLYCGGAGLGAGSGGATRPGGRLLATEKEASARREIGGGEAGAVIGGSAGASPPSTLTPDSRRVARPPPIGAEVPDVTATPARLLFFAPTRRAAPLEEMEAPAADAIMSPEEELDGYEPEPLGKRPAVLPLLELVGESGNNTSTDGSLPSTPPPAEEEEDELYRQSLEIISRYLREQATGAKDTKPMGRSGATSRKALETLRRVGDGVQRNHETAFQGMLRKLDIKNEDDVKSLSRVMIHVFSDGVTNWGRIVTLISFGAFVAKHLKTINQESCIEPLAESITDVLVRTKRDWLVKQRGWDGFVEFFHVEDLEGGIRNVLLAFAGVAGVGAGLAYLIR
Assay: PIxEL: protein-protein interaction in permeabilized cells by ELISA (Assay 5)
Assay type: cell-based
Details: PIxEL IC50 (median)
pIC50 is defined as minus the log10 of a concentration measured in mol/L.

Cc1c2c(nn1C)C(CCO)OCCCCn1c(C(=O)O)c(CCCOc3cccc4ccccc34)c3ccc(Cl)c-2c31 (single isomer, unassigned; enantiomer 1) [Example 31]    6.32
Cc1c2c(nn1C)C(CCN1CCOCC1)OCCCCn1c(C(=O)O)c(CCCOc3cccc4ccccc34)c3ccc(Cl)c-2c31 (single isomer, unassigned; enantiomer 2) [Example 15]    4.90
Cc1c2c(nn1C)C(CCN1CCOCC1)OCCCCn1c(C(=O)O)c(CCCOc3cccc4cc(F)ccc34)c3ccc(Cl)c-2c31 (single isomer, unassigned; enantiomer 1) [Example 17]    7.45
CCc1c2c(nn1C)C(CC(C)(C)O)OCCCCn1c(C(=O)O)c(CCCOc3cccc4cc(F)ccc34)c3ccc(Cl)c-2c31 (single isomer, unassigned; enantiomer 1)    6.87

Item under review: CCc1c2c(nn1C)C(CCN1CCOCC1)OCCCCn1c(C(=O)O)c(CCCOc3cccc4cc(F)ccc34)c3ccc(F)c-2c31 (single isomer, unassigned; enantiomer 1) [Example 50] . Reported pIC50?
7.43

###

Biological target: MCL-1 (Homo sapiens (Human), UniProt Q07820, K194A/K197A/R201A)
Sequence (Q07820 whole entry K194A/K197A/R201A, looked up): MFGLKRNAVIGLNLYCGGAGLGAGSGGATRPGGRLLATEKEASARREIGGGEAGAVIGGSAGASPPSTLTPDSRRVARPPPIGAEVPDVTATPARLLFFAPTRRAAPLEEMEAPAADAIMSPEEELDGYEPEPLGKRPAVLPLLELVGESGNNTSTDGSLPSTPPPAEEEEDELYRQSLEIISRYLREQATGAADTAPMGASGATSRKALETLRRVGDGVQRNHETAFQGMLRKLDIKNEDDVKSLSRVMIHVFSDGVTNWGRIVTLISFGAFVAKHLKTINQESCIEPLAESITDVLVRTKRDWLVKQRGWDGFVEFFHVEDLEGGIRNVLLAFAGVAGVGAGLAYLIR
Test: Protein-compound interaction assay (SPR assay, Assay 9)
Assay type: binding
Details: read-out: kon (geometric mean), SPR, 25° C.
MEASUREMENT_NAME: log10 kon (log10 of the value in M⁻¹ s⁻¹)
// stored as log10 of kon expressed in M⁻¹ s⁻¹

Observe how each entry below is paired with its result.
Cc1c2c(nn1C)C(CCN1CCOCC1)OCCCCn1c(C(=O)O)c(CCCOc3cccc4cc(F)ccc34)c3ccc(F)c-2c31 (single isomer, unassigned; enantiomer 1)    7.51
CCc1c2c(nn1C)C(CCC1CCOCC1)OCCCCn1c(C(=O)O)c(CCCOc3cccc4cc(F)ccc34)c3ccc(Cl)c-2c31 (single isomer, unassigned; enantiomer 1) [Example 61]    6.20
Cc1c2c(nn1C)C(C)OCCCCn1c(C(=O)O)c(CCCOc3cccc4ccccc34)c3cccc-2c31 (single isomer, unassigned; stereoisomer 1)    6.77
CCc1c2c(nn1C)C(CCOC)OCCCCn1c(C(=O)O)c(CCCOc3cccc4cc(F)ccc34)c3ccc(Cl)c-2c31 (single isomer, unassigned; enantiomer 1)    6.08

Fill in: log10 kon of Cc1c2c(nn1C)C(CCN1CCOCC1)OCCCCn1c(C(=O)O)c(CCCOc3cccc4ccccc34)c3ccc(Cl)c-2c31 (single isomer, unassigned; enantiomer 1) is ___
7.36

###

Test system: MV-4-11 cells
Experiment: Antiproliferation assay MV-4-11 (Assay 7)
Format: cell-based
Settings: Homo sapiens, MV4-11, 72 h, CellTiter-Glo, read-out: Antiproli MV-4-11 IC50 median
The entries below are paired with their reported IC50.
Could you give me the number in µM? Just the number is fine.

Example entries begin here.
Cc1c2c(nn1C)C(CCN1CCOCC1)OCCCCn1c(C(=O)O)c(CCCOc3cccc4ccccc34)c3ccc(Cl)c-2c31 (racemic) [Example 13]    0.22
Cc1c2c(nn1C)C(CCN1CCOCC1)OCCCCn1c(C(=O)O)c(CCCOc3cccc4cc(F)ccc34)c3ccc(F)c-2c31 (racemic) [Example 19]    0.14
CCc1c2c(nn1C)C(CCN1CCOCC1)OCCCCn1c(C(=O)O)c(CCCOc3cccc4ccccc34)c3ccc(F)c-2c31 (racemic) [Example 10]    0.11

Need IC50, item Cc1c2c(nn1C)C(CCN1CCOCC1)OCCCCn1c(C(=O)O)c(CCCOc3cccc4cc(F)ccc34)c3ccc(Cl)c-2c31 (racemic) [Example 16]
0.0346

###

Test system: SK-BR-3 cells
Assay: Antiproliferation assay SK-BR-3 (Assay 7)
Assay type: cell-based
Settings: Homo sapiens, SK-BR-3; 72 h, CellTiter-Glo; read-out: Antiproli SK-BR-3 IC50 median
Procedure: Assessment of the Anti-Proliferative Effect of Compounds in Different Cell Lines The impact of compounds on the proliferation of different cell lines was assessed using the CellTiter-Glo® Luminescent Cell Viability reagent from Promega (G7573). In parallel, cells were plated in a reference (day 0) plate for time zero determination. […] After 72 h incubation, the treated plates were measured in the same way as the day 0 plate mentioned above. […]
MEASUREMENT_NAME: IC50

Please state recorded IC50 (tested on SK-BR-3 cells) of Cc1c2c(nn1C)C(CCN1CCOCC1)OCCCCn1c(C(=O)O)c(CCCOc3cccc4cc(F)ccc34)c3ccc(Cl)c-2c31 (racemic)
108 nM

###

Tested on: SUDHL10 cells
Test: Induction of cytotoxicity in SUDHL10 cells (Assay 6)
Assay type: cell-based
Details: Homo sapiens, SU-DHL10, 5 h, 5 h, CellTiter-Glo; read-out: Cytotox SUDHL10 IC50 (median)
Lab note: anything with IC50 below 900 nM is marked Fulfilled; values at 900 nM or higher are marked Not fulfilled.

Consider the following illustrative entries.
Cc1c2c(nn1C)C(CCN1CCOCC1)OCCCCn1c(C(=O)O)c(CCCOc3cccc4ccccc34)c3ccc(Cl)c-2c31 (racemic)    Fulfilled
CCc1c2c(nn1C)C(CCO)OCCCCn1c(C(=O)O)c(CCCOc3cccc4cc(F)ccc34)c3ccc(Cl)c-2c31 (racemic)    Fulfilled
Cc1c2c(nn1C)C(CCN1CCOCC1)OCCCCn1c(C(=O)O)c(CCCOc3cccc4cc(F)ccc34)c3ccc(F)c-2c31 (single isomer, unassigned; enantiomer 2) [Example 21]    Not fulfilled
Cc1c2c(nn1C)C(CCN1CCOCC1)OCCCCn1c(C(=O)O)c(CCCOc3cccc4ccccc34)c3ccc(F)c-2c31 (racemic)    Fulfilled

# next molecule below
Just wondering, is IC50 of CCC1OCCCCn2c(C(=O)O)c(CCCOc3cccc4ccccc34)c3ccc(Cl)c(c32)-c2c1nn(C)c2C (racemic) below 900 nM?
Not fulfilled

###

Test system: SUDHL5 cells
Experiment: Induction of caspase-3/7 activity in SUDHL5 cells (Assay 4)
Type: cell-based
Settings: Homo sapiens, SU-DHL-5, 3 h, caspase-3/7 induction, 3 h; read-out: Caspase SUDHL5 EC50 (median)
pEC50: −log10 of the molar value.
Decide by pEC50: equal to or exceeding 6 means t, less means f.

Cc1c2c(nn1C)C(CCN1CCOCC1)OCCCCn1c(C(=O)O)c(CCCOc3cccc4cc(F)ccc34)c3ccc(Cl)c-2c31 (single isomer, unassigned; enantiomer 2) [Example 18]    t
CCc1c2c(nn1C)C(CCN1CCC(F)(F)C1)OCCCCn1c(C(=O)O)c(CCCOc3cccc4cc(F)ccc34)c3ccc(Cl)c-2c31 (single isomer, unassigned; enantiomer 1) [Example 58]    t
CCC1OCCCCn2c(C(=O)O)c(CCCOc3cccc4ccccc34)c3ccc(Cl)c(c32)-c2c1nn(C)c2C (racemic)    f

I'd appreciate it if you could say whether Cc1c2c(nn1C)C(C1CC1)OCCCCn1c(C(=O)O)c(CCCOc3cccc4ccccc34)c3ccc(Cl)c-2c31 (racemic) has pEC50 at least equal to 6.
f

Please indicate if the recorded pEC50 for CCc1c2c(nn1C)C(CCN1CCOCC1)OCCCCn1c(C(=O)O)c(CCCOc3cccc4cc(F)ccc34)c3ccc(F)c-2c31 (racemic) meets or exceeds 6.
t

Is it the case that CCc1c2c(nn1C)C(C1CC1)OCCCCn1c(C(=O)O)c(CCCOc3cccc4cc(F)ccc34)c3ccc(Cl)c-2c31 (racemic) has pEC50 reaching or exceeding 6?
f

###

Target: MCL-1 (Homo sapiens (Human), UniProt Q07820, K194A/K197A/R201A)
Assay: Protein-compound interaction assay (SPR assay, Assay 9)
Assay type: binding
Conditions: read-out: kon (geometric mean), SPR, 25° C.
MEASUREMENT_NAME: kon (M⁻¹ s⁻¹)
Give just the numeric value; M⁻¹ s⁻¹ need not be written.

Please review the entries below; each comes with its answer.
CCc1c2c(nn1C)C(CCO)OCCCCn1c(C(=O)O)c(CCCOc3cccc4cc(F)ccc34)c3ccc(Cl)c-2c31 (single isomer, unassigned; enantiomer 1) [Example 45]    3e+06
CCc1c2c(nn1C)C(CCC1CCOCC1)OCCCCn1c(C(=O)O)c(CCCOc3cccc4cc(F)ccc34)c3ccc(Cl)c-2c31 (single isomer, unassigned; enantiomer 1) [Example 63]    1.1e+06
CCc1c2c(nn1C)C(CCN1CCOCC1)OCCCCn1c(C(=O)O)c(CCCOc3cccc4cc(F)ccc34)c3ccc(F)c-2c31 (single isomer, unassigned; enantiomer 1) [Example 50]    2.5e+07
Cc1c2c(nn1C)C(CCO)OCCCCn1c(C(=O)O)c(CCCOc3cccc4ccccc34)c3ccc(Cl)c-2c31 (single isomer, unassigned; enantiomer 1) [Example 31]    4.4e+06

Quick check: kon on MCL-1 (Homo sapiens (Human), UniProt Q07820, K194A/K197A/R201A), item CCc1c2c(nn1C)C(CCN1CC(F)(F)C1)OCCCCn1c(C(=O)O)c(CCCOc3cccc4cc(F)ccc34)c3ccc(Cl)c-2c31 (single isomer, unassigned; (+)) [Example 78] ?
3.5e+06
